Assay: Solubility of Form A and Form B of Compound 2 in bio-relevant media
Format: physicochemical
Details: SGF, 37 °C, pH 1.2, simulated gastric fluid, thermodynamic from solid, SGF (pH 1.2), 0.5 h
endpoint-name: solubility at 0.5 h (µg/mL)

>>> observed_measurement("C=CC(=O)N1C[C@H](C)N(c2nc(=O)n(-c3c(C4CC4)ncnc3C3CC3)c3nc(-c4c(N)cccc4F)c(F)cc23)C[C@H]1C (single isomer, unassigned) [Form B]")
60

* * *

Assay: Solubility of Compound 1 solid forms in bio-relevant media and water
Type: physicochemical
Conditions: FeSSIF, 37 °C, thermodynamic from solid, 0.5 h
endpoint-name: solubility at 0.5 h

>>> observed_measurement("C=CC(=O)N1C[C@H](C)N(c2nc(=O)n(-c3c(C4CC4)ncnc3C3CC3)c3nc(-c4c(N)cccc4F)c(Cl)cc23)C[C@H]1C [Form IV]")
"37 µg/mL"
